Biological target: Gal4-RORγ-LBD (Homo sapiens, UniProt P51449)
Construct: expressed in transfected cells; host or cells: HEK-293 cells (pcDNA3.1neo plasmid)
Sequence (P51449 269-508 limits assumed): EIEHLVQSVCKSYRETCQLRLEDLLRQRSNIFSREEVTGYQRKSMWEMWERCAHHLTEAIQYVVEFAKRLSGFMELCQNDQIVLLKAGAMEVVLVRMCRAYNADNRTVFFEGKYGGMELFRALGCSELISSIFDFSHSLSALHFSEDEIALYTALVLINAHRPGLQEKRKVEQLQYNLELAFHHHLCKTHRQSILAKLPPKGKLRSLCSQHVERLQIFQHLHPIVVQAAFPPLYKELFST
Assay: Gal4-RORγ Luciferase Reporter Assay in HEK-293T Cells
Format: cell-based
Details: HEK-293 cells, 2 μM ursolic acid
Text: Assay procedures and results are described below. […] The cells were harvested as described above, counted, and centrifuged to obtain the desired number of cells, then re-suspended in complete growth media at 0.75×10^6 cells/mL. […] The luciferase intensity was read on an Envision plate reader (Perkin Elmer). […] The Max Response is the upper plateau in the signal as determined by line-fit using a 4-parameter logistic model in PRISM (GraphPad).
pEC50: −log10 of the molar value.
Endpoint Label: pEC50

Reference set, count: 2
Compound	pEC50
CC(=O)NC(C)(C)C[C@H]1CN(S(=O)(=O)c2cccc(C(F)(F)F)c2)c2cc(-c3cc(F)ccc3F)ccc2O1 [Compound 30CV]	> 6.30
O=C(O)CO[C@@H]1Cc2ccc(-c3cc(F)cc(OC(F)F)c3)cc2N(S(=O)(=O)c2cccc(C(F)(F)F)c2)C1 [Compound 83E]	5.30 to 6.30

Kindly consider the entry below.
input: Recorded pEC50 of O=C(O)[C@]1(C[C@H]2CN(S(=O)(=O)c3cccc(C(F)(F)F)c3)c3cc(-c4cc(F)cc(OC(F)F)c4)ccc3O2)CCNC1=O , please.
output: > 6.30

----------
Molecular target: Gal4-RORγ-LBD (Homo sapiens, UniProt P51449)
Construct: expressed in transfected cells; host or cells: HEK-293 cells (pcDNA3.1neo plasmid)
Sequence (P51449 269-508 limits assumed): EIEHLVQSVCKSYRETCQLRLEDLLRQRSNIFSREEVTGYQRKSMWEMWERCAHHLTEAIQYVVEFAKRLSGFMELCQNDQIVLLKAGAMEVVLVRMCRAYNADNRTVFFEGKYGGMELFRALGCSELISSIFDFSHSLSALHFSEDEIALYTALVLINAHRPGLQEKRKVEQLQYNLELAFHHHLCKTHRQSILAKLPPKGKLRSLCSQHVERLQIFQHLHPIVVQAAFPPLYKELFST
Experiment: Gal4-RORγ Luciferase Reporter Assay in HEK-293T Cells
Format: cell-based
Settings: HEK-293 cells, luciferase reporter, with 2 μM ursolic acid
pEC50: −log10 of the molar value.
Endpoint Label: pEC50

Reference set, count: 6
Compound	Endpoint Label	Value Reported
CC(C)c1cccc(S(=O)(=O)N2C[C@H](CC(C)(C)C(=O)O)Oc3ccc(-c4cc(F)ccc4F)cc32)c1 [Compound 32M]	pEC50	5.30 to 6.30
CCOc1cccc(-c2ccc3c(c2)N(S(=O)(=O)c2cccc(C(F)(F)F)c2)C[C@H](CCC(=O)O)O3)c1F [Compound 4AA]	pEC50	> 6.30
CC(C)Oc1cccc(-c2ccc3c(c2)N(S(=O)(=O)c2cccc(C(F)(F)F)c2)C[C@H](CCC(=O)O)O3)c1 [Compound 2AV]	pEC50	5.30 to 6.30
O=C(O)CC[C@H]1CN(S(=O)(=O)c2cccc(C(F)(F)F)c2)c2cc(-c3cnn4ccccc34)ccc2O1 [Compound 4O]	pEC50	5.30 to 6.30
O=C(O)CCC[C@H]1CN(S(=O)(=O)c2cccc(C(F)(F)F)c2)c2cc(-c3cccc(F)c3F)ccc2O1 [Compound 21A]	pEC50	> 6.30
CC(=O)NC[C@H]1CN(S(=O)(=O)c2cccc(C(F)(F)F)c2)c2cc(-c3cc(F)ccc3F)ccc2O1 [Compound 30BD]	pEC50	> 6.30

Kindly consider the entry below.
input: Recorded pEC50 of O=c1[nH]nc(CC[C@H]2CN(S(=O)(=O)c3cccc(C(F)(F)F)c3)c3cc(-c4cc(F)cc(F)c4Cl)ccc3O2)o1 [Compound 28I] , please.
output: > 6.30
